TEST DESCRIPTION: melting temperature; fluorescence melt of hairpins on a sequencing array, two-state fit, raised by 9.35 °C to match UV melts
ASSAY CONTEXT: sodium 0.088 M
In plain terms, low Tm, meaning strictly below 40 °C, gives TRUE, and everything else gives FALSE.

Before answering, review these 2 worked examples.
- ENTRY SEQUENCE: "GTAGAAACGAAAGTTTAC (((..(((....))))))"
  CLASS NAME: "TRUE"
- ENTRY SEQUENCE: "GATCAATCCTTTGATC ((((((....))))))"
  CLASS NAME: "FALSE"

Incoming: Find out if reported Tm for CGGTTCGGAAACGACCG (((.(((....)))))) is less than 40 °C
Outgoing: FALSE

Incoming: Criterion: Tm strictly below 40 °C. Is it met by GTCCTCGAAAGAGTGGAC ((((((....)))..))) ?
Outgoing: FALSE

Incoming: Quick check: does GATCGCGAAAGCGTGATC ((((((....)))..))) have Tm under 40 °C?
Outgoing: FALSE

Incoming: Does the reported Tm of the following sequence sit strictly below 40 °C? GCCTTAGGAAACTAGGGC (((.(((....))).)))
Outgoing: FALSE

Incoming: Determine if GGGGCCGCGAAAGCGCCC (((..(((....)))))) shows Tm strictly lower than 40 °C.
Outgoing: FALSE

Incoming: Dear reviewer, please state whether CACTAGAAATAGTG (((((....))))) has Tm strictly beneath 40 °C.
Outgoing: TRUE

Incoming: State whether 40 °C exceeds Tm recorded for GATCCCCGCCGGGATC ((((((....)))))) .
Outgoing: FALSE

Incoming: Is Tm of GCCACGCGAAAGCATTGC ((.(.((....)).).)) strictly below 40 °C?
Outgoing: TRUE

Incoming: Consider the sequence GATCTCCGCGGAGATC ((((((....)))))) . Is its Tm strictly less than 40 °C?
Outgoing: FALSE

Incoming: Please check: Tm for GCCAAAGGAAACTCTGGC ((((.((....)).)))) , strictly under 40 °C or not?
Outgoing: TRUE

Incoming: For this sequence, is Tm lower than 40 °C? GACCTGCGAAAGCACGTC (((.(((....))).)))
Outgoing: FALSE

Incoming: In plain terms, does GATCCAAGCGTGGATC ((((((....)))))) come in under 40 °C for Tm?
Outgoing: FALSE

Incoming: Please indicate whether the reported Tm of GCCCTTGGAAACAAAGGC (((.(((....))).))) is strictly below 40 °C.
Outgoing: TRUE

Incoming: Item GCCACCGGAAACGACGGC (((..((....))..))) : Tm beneath 40 °C, strictly?
Outgoing: FALSE

Incoming: Please state whether Tm is below 40 °C for GTAACGGGAAACTGTTAC (((((.(....).)))))
Outgoing: FALSE

====

TEST DESCRIPTION: folding enthalpy; higher = less favourable; fluorescence melt of hairpins on a sequencing array, two-state fit
ASSAY CONTEXT: sodium 0.088 M
Form field: folding enthalpy (one value per entry).
Your answer is read as kcal/mol, so omit the unit and give the number.

Please review the following examples before continuing.
- ENTRY SEQUENCE: "GCGTTGCGAAAGCGAAGC ((.(.((....)).).))"
  folding enthalpy (kcal/mol): -20.4
- ENTRY SEQUENCE: "GATCAACACATTGATC ((((((....))))))"
  folding enthalpy (kcal/mol): -36.9
- ENTRY SEQUENCE: "GGAGAGGGAAACCCCTCC ((((.((....)).))))"
  folding enthalpy (kcal/mol): -28.6
- ENTRY SEQUENCE: "GATCGCTCTGGCGATC ((((((....))))))"
  folding enthalpy (kcal/mol): -37.7
- ENTRY SEQUENCE: "GGATGCGAAAGCAAGTCC ((((((....)))..)))"
  folding enthalpy (kcal/mol): -13.7
- ENTRY SEQUENCE: "GATCGATGGTTCGATC ((((((....))))))"
  folding enthalpy (kcal/mol): -43
- ENTRY SEQUENCE: "GATCTGGGCTCAGATC ((((((....))))))"
  folding enthalpy (kcal/mol): -39.3
- ENTRY SEQUENCE: "GAGCAAGGAAACCTGCTC (((((.(....).)))))"
  folding enthalpy (kcal/mol): -27.6

folding enthalpy in this record for GTGGATGGAAACATCCAC (((((((....))))))) : -50.1

Form: sequence = GTACGGCGAAAGCCTAC (((.(((....)))))) ; folding enthalpy = -14.9

Noted for GGGATTGGAAACGATCCC (((((.(....).))))) : its folding enthalpy reads -43.8

Kindly note the recorded folding enthalpy for GCGGTTGTCCGC ((((....)))) , which is -23.5

GET /value?item= GTCTTTCCGAAAGGAGAC (((..(((....)))))) &field=folding enthalpy returns -10.6

folding enthalpy reading for GGAGATCGAAAGATATCC (((.(((....))).))) : -43.2

Reported folding enthalpy ( GCATCCGAAAGGATGTGC ((((((....)))..))) ) = -18.9

# sequence GTTGTGGGAAACTACAGC (.(((.(....).))).) ; its folding enthalpy = -16.8

Memo: GCGCGGGGAAACCCGCAC (.(((((....))))).) , reported folding enthalpy: -8.32

For GACGTTGGAAACAGCGTC ((((.((....)).)))) the sequence record lists folding enthalpy as -39.6
